System: LANA (ORF73) N-terminal peptide binding to nucleosomes, Human herpesvirus 8
protocol: LANA N-terminal peptide–nucleosome interaction blockers – biochemical, fluorescence polarization, FITC-LANA1-23, chicken nucleosomes, primary screen (AID 720717)
settings: FITC-LANA1-23 / chicken nucleosome fluorescence polarization; hits give low values
The whole screen tested about 51,000 compounds, of which about 150 (0.29%) were called active. What follows is part of a selection rich in actives, with near analogues and random picks from the rest.
Returns the class for an entry based on its z-score. Class ranges: bottom (below -0.5), middle (-0.5 to below 0.2), top (0.2 or more)

1) O=C1NN=C(Cc2ccccc2)C1CCO (stereo not given)    bottom

Q: Assign a category based on measured z-score for COc1ccc(C2=NS(=O)(=O)N(C)C(C(=O)NCC(C)C)=C2)cc1OC and give only the class name.
Result: bottom

Q: Next entry: Cc1ccc2c(c1)cc(CN(Cc1ccco1)C(=O)c1ccccc1)c1nnnn12
Result: top

Q: Next entry: O=C1c2ccccc2OCC12COC(c1ccccc1)OC2 (stereo not given)
Result: bottom

Q: Next entry: CCN(CC)S(=O)(=O)c1c(C)nn(S(=O)(=O)c2ccccc2)c1C
Result: top

Q: Next entry: Nc1nonc1-n1nnc(C(=O)N=Nc2c(O)[nH]c3ccc(Br)cc23)c1-c1ccccc1
Result: top

Q: Next entry: CN(C)c1ccc(C(=S)N2CCN(c3cccc(Cl)c3)CC2)cc1
Result: top
